Here the recorded inhibition at 1 µM is given for each entry.
- Assayed System: Human TYK2 (Homo sapiens (Human))
- Sequence (P29597 whole entry): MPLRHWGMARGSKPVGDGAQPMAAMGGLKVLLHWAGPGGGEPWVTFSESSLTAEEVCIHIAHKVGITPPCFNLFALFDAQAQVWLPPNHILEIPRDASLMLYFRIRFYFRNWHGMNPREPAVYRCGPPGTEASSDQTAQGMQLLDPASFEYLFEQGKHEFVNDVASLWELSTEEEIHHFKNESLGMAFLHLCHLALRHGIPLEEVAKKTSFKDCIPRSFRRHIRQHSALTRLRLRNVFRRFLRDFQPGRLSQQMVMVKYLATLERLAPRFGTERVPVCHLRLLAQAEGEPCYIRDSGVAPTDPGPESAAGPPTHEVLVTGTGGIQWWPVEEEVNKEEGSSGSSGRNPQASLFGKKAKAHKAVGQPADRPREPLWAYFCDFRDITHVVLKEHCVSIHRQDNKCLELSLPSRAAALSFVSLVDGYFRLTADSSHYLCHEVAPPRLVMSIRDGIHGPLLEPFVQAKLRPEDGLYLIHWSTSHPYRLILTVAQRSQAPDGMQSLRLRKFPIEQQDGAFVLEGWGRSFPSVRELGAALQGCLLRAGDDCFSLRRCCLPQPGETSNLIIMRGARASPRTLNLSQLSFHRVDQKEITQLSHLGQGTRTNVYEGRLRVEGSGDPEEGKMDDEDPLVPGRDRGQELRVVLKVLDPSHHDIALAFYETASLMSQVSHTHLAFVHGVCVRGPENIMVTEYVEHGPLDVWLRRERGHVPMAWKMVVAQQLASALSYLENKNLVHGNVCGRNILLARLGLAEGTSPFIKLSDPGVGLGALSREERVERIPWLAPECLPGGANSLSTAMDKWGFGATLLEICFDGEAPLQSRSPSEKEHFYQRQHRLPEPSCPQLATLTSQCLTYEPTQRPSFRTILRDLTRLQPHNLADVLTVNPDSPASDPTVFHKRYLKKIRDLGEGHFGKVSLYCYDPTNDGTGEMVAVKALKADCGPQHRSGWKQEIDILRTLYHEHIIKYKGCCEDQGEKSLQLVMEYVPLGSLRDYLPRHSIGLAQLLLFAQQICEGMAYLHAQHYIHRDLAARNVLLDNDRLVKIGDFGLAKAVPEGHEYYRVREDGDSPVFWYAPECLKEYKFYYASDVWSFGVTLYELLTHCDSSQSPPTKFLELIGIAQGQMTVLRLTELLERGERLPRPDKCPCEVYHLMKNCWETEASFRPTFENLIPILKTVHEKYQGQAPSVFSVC
- Assay Text: In vitro kinase inhibition test, TYK2 (33P-ATP filter scintillation)
- Assay type: biochemical
- Recorded Conditions: compound at 1 uM; read-out: TYK2 kinase-phosphorylation inhibitory level (% inhibition)

# Compound, Reading Unit, inhibition at 1 µM
records = [
    ("CN(c1ncnc2[nH]ccc12)[C@H]1CN(C(=O)c2cccnc2)CC12CC2 [Example 12]", "%", 26),
    ("CN(c1ncnc2[nH]ccc12)[C@H]1CN(C(=S)Nc2cc(C(F)(F)F)cc(C(F)(F)F)c2)CC12CC2 [Example 31]", "%", 1),
    ("CN(c1ncnc2[nH]ccc12)[C@H]1CN(S(=O)(=O)c2cccc([N+](=O)[O-])c2)CC12CC2 [Example 44]", "%", 98),
    ("CN(c1ncnc2[nH]ccc12)C1CN(C(=O)CN=[N+]=[N-])CC12CC2 (stereo not shown) [Example 54]", "%", 72),
    ("CN(c1ncnc2[nH]ccc12)[C@H]1CN(S(=O)(=O)c2cccc(F)c2)CC12CC2 [Example 38]", "%", 97),
    ("CC(C)COC(=O)N1C[C@H](N(C)c2ncnc3[nH]ccc23)C2(CC2)C1 [Example 20]", "%", 43),
    ("CN(c1ncnc2[nH]ccc12)[C@H]1CN(S(=O)(=O)c2cccc(C#N)c2)CC12CC2 [Example 41]", "%", 97),
]

# credit: patent US10081635B2
